assay: Long-term stability in spiked pooled human plasma; conditions: validation standard MOV
MEASURED QUANTITY: Long-term stability, 1 month, -80°C Accuracy [%] (%)
Give the number; % is assumed, so skip it.

Dear colleague, please send me the reported Long-term stability, 1 month, -80°C Accuracy [%] for COC(=O)c1ccc2c(c1)NC(=O)/C2=C(\Nc1ccc(N(C)C(=O)CN2CCN(C)CC2)cc1)c1ccccc1 [Nintedanib] when you can.
91.4

Retrieve Long-term stability, 1 month, -80°C Accuracy [%] measured for N#CC[C@H](C1CCCC1)n1cc(-c2ncnc3[nH]ccc23)cn1 [Ruxolitinib] and print it.
94.2

Indicate its recorded Long-term stability, 1 month, -80°C Accuracy [%]; the molecule in question is Cc1cc(Nc2ncc(Cl)c(Nc3ccccc3S(=O)(=O)C(C)C)n2)c(OC(C)C)cc1C1CCNCC1 [Ceritinib]
93.7

Give a short answer stating reported Long-term stability, 1 month, -80°C Accuracy [%] for CNCc1ccc(-c2[nH]c3cc(F)cc4c3c2CCNC4=O)cc1 [Rucaparib] .
95.5

Consider the molecule COc1cc(N2CCC(N3CCN(C)CC3)CC2)ccc1Nc1ncc(Cl)c(Nc2ccccc2P(C)(C)=O)n1 [Brigatinib] . State its measured Long-term stability, 1 month, -80°C Accuracy [%].
96.9

Provide only the value of recorded Long-term stability, 1 month, -80°C Accuracy [%] for COc1cc2nccc(Oc3ccc(NC(=O)C4(C(=O)Nc5ccc(F)cc5)CC4)cc3)c2cc1OC [Cabozantinib]
97.3

Input COc1cc2c(Nc3ccc(Br)cc3F)ncnc2cc1OCC1CCN(C)CC1 [Vandetanib] , output reported Long-term stability, 1 month, -80°C Accuracy [%].
95.9
